B1: glmS ribozyme (parent)
chain: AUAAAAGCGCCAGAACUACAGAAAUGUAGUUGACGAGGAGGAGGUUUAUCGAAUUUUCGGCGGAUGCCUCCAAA

# Variants of: B1
# experiment-summary: self-cleavage kobs at 10000 uM GlcN6P; higher = faster cleavage; RNA array
# experimental-setup: with glucosamine-6-phosphate
Variants at the floor of the assay were thinned out.

# mut, result-unit, result-modifier, self-cleavage kobs at 10000 uM GlcN6P
measured = [
    ("G32A U49G", "s⁻¹", "=", "5.56e-05"),
    ("G44C U69G", "s⁻¹", "<", "1e-05"),
    ("U47G C70A", "s⁻¹", "=", "8.94e-05"),
    ("A33U C50G C71G", "s⁻¹", "=", 0.0002),
    ("A15C C16G U31A", "s⁻¹", "=", 0.000253),
    ("C16G G32A C68U", "s⁻¹", "=", 0.000115),
    ("U57A G60A C61A", "s⁻¹", "<", "1e-05"),
    ("C8G C71U", "s⁻¹", "<", "1e-05"),
    ("A15G A52G C71U", "s⁻¹", "=", 0.00137),
    ("U46G C61G C71G", "s⁻¹", "=", "4.27e-05"),
    ("C8A U47C C58G G66U", "s⁻¹", "<", "1e-05"),
    ("U30G U31G", "s⁻¹", "=", 0.036),
    ("A42U C67U", "s⁻¹", "=", 0.000131),
    ("A52G C61G", "s⁻¹", "<", "1e-05"),
    ("U30A A33C", "s⁻¹", "=", "4.35e-05"),
    ("U65G G66C", "s⁻¹", "=", 0.00137),
    ("G41A G66U C70A", "s⁻¹", "=", 0.000131),
    ("C34G G37A G44C C50G A53G G66U", "s⁻¹", "<", "1e-05"),
    ("C34A G43A U49G C70G", "s⁻¹", "<", "1e-05"),
    ("U46A G66C", "s⁻¹", "=", 0.00237),
    ("A52U U56G", "s⁻¹", "=", 0.000122),
    ("A14G U31A", "s⁻¹", "=", 0.0669),
]
